testSummary: Antioxidant activity assessed as effective concentration for potassium ferric cyanide ion reducing power equivalent of 0.5 absorbance ellagic acid at 100 to 1000 ug/ml after 20 mins by FRAP assay
Format: functional
Label label 1 when Activity is at or above 0.9 mg/mL; anything below gets label 0.

* O=c1c2c([nH]n1-c1ccc([N+](=O)[O-])cc1)C=C(c1ccc(F)cc1)CC2c1ccc(Br)cc1 (stereo not drawn) | label 0

Prompt: Decide: Activity of O=c1c2c([nH]n1-c1ccccc1)C=C(c1ccc(F)cc1)CC2c1ccc(Br)cc1 (stereo not drawn) >= 0.9 mg/mL?
Response: label 0

Prompt: Could you tell me if the measured Activity of O=c1[nH][nH]c2c1C(c1ccccc1)CC(c1ccc(F)cc1)=C2 (stereo not drawn) reaches 0.9 mg/mL or more?
Response: label 0

Prompt: Determine whether measured Activity meets or exceeds 0.9 mg/mL for O=c1c2c([nH]n1-c1ccc([N+](=O)[O-])cc1)C=C(c1ccc(F)cc1)CC2c1ccc(Cl)cc1 (stereo not drawn)
Response: label 1

Prompt: Kindly determine if Activity recorded for "O=c1oc2c(O)c(O)cc3c(=O)oc4c(O)c(O)cc1c4c23" is above or exactly 0.9 mg/mL.
Response: label 0

Prompt: Hi, just wondering whether O=c1c2c([nH]n1-c1ccc([N+](=O)[O-])cc1)C=C(c1ccc(F)cc1)CC2c1ccccc1 (stereo not drawn) shows Activity of 0.9 mg/mL or higher.
Response: label 0

Prompt: Decide: Activity of O=c1c2c([nH]n1-c1ccc([N+](=O)[O-])cc1[N+](=O)[O-])C=C(c1ccc(F)cc1)CC2c1ccc(Cl)cc1 (stereo not drawn) >= 0.9 mg/mL?
Response: label 0

Prompt: Please check the record O=c1[nH][nH]c2c1C(c1ccc(Br)cc1)CC(c1ccc(F)cc1)=C2 (stereo not drawn) and state if its Activity is at or above 0.9 mg/mL.
Response: label 1

Prompt: // inclusive: Activity at least 0.9 mg/mL? input: O=c1[nH][nH]c2c1C(c1ccc(Cl)cc1)CC(c1ccc(F)cc1)=C2 (stereo not drawn)
Response: label 1

Prompt: Is Activity for O=c1c2c([nH]n1-c1ccc([N+](=O)[O-])cc1[N+](=O)[O-])C=C(c1ccc(F)cc1)CC2c1ccc(Br)cc1 (stereo not drawn) at or above 0.9 mg/mL?
Response: label 0

Prompt: I'd appreciate it if you could say whether O=c1c2c([nH]n1-c1ccc([N+](=O)[O-])cc1[N+](=O)[O-])C=C(c1ccc(F)cc1)CC2c1ccccc1 (stereo not drawn) has Activity at least equal to 0.9 mg/mL.
Response: label 1

Prompt: // inclusive: Activity at least 0.9 mg/mL? input: O=c1c2c([nH]n1-c1ccccc1)C=C(c1ccc(F)cc1)CC2c1ccc(Cl)cc1 (stereo not drawn)
Response: label 1

Prompt: Hi, just wondering whether O=c1c2c([nH]n1-c1ccccc1)C=C(c1ccc(F)cc1)CC2c1ccccc1 (stereo not drawn) shows Activity of 0.9 mg/mL or higher.
Response: label 1
